B1: MYBL2 (parent)
chain: IAKHLKGRLGKQCRERWHNHLNPE

# Variants of: B1
# Assay overview: protein stability index of a GFP-peptide fusion (GPS, HEK-293T) (PSI 1-6); higher = more stable;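 further: lentivirally expressed fusions sorted by FACS into six bins by GFP to DsRed ratio, PSI derived from sequencing read proportions per bin multiplied by bin number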
# Condition set: c terminus: a fixed tail appended
Kindly supply the reported protein stability index values for the records listed here.
Number only, please.

// field: protein stability index; key: K3M ; value = 1.81

R16H has a reported protein stability index of 1.58

Recorded result, L21K , protein stability index: 2.79

Looking up N22W , I found its protein stability index recorded as 2.6

The recorded protein stability index for L9T is 1.99

// E24W : protein stability index value = 1.79

Reported protein stability index of K11R : 1.95

// field: protein stability index; key: Q12E ; value = 1.92

L9C has a reported protein stability index of 2.08

Form field protein stability index, entry Q12N : 1.38

W17V yielded protein stability index of 2.08

protein stability index recorded for this variant, E15D , is 1.73

In plain terms, E15P has a documented protein stability index of 1.63

In plain terms, R16F has a documented protein stability index of 2.19

The reported value for P23V in terms of protein stability index is 2.46

protein stability index for N19P is 1.02

Looking up N19G , I see its protein stability index listed as 2.8

Value of measured protein stability index for the entry N22G : 1.43

Briefly, protein stability index measured for G10V : 2.54

Lab note: A2L gave protein stability index of 3.74

The recorded protein stability index for R8K is 2.11

// protein stability index lookup, variant = L5E , result: 2.49

The variant listed as Q12L shows protein stability index equal to 2.32

// sample L9K , its protein stability index was 2.5

The variant identified as I1K registered its protein stability index at 2.18

response.value for K11V (field: protein stability index) = 2.12

Form: variant = L9A ; protein stability index = 1.76

GET /value?item= Q12Y &field=protein stability index returns 2.33

K6D has a reported protein stability index of 2.46

Input N22A . Output protein stability index: 1.73

Recorded values, source the supplement of paper PMC10567573.
